# system: Odc2p (Saccharomyces cerevisiae, UniProt Q99297)
# Construct: made in house; host or cells: S. cerevisiae odc1Δodc2Δ (YPH499 background) carrying pYES2-based pODC2; purified from mitochondria on Ni-NTA agarose
# measurement-protocol: Effect of inhibitors and external compounds on the [14C]oxoglutarate/oxoglutarate exchange by proteoliposomes reconstituted with Odc2p
# Format: biochemical
# condition-details: Odc2p; 8 mM, 20 times greater than the substrate; data not shown
readout-kind: effect of oxomonocarboxylates on the rate of uptake of 0.4 mM oxoglutarate (in words)

CC(=O)CCCC(=O)O [5-oxohexanoate]
did not influence
CC(C)CC(=O)C(=O)O [2-oxoisocaproate]
did not influence
CCCC(=O)C(=O)O [2-oxovalerate]
did not influence
CCC(=O)C(=O)O [2-oxobutyrate]
did not influence

* * *

[14C]oxoglutarate transport values for the compounds below.
# system: Odc1p (Saccharomyces cerevisiae, UniProt Q03028)
# Construct: made in house; host or cells: S. cerevisiae odc1Δodc2Δ (YPH499 background) carrying pYES2-based pODC1; purified from mitochondria on Ni-NTA agarose
# Sequence (Q03028 whole entry): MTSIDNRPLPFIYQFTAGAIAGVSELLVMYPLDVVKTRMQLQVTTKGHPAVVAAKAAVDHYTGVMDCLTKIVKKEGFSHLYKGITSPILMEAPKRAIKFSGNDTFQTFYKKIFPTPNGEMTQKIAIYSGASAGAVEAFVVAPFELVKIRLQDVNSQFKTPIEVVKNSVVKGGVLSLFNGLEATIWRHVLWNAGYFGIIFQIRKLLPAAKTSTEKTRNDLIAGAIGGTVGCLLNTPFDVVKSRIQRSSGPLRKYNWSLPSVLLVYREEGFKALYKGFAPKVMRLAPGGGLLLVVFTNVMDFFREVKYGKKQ
# measurement-protocol: Dependence on internal substrate of [14C]oxoglutarate uptake into proteoliposomes reconstituted with recombinant Odc1p
# Type: biochemical
# condition-details: Odc1p; proteoliposomes preloaded with 20 mM internal substrate; 0.6 mM [14C]oxoglutarate; 45 seconds
readout-kind: [14C]oxoglutarate transport

O=C(O)/C=C\C(=O)O [Maleate]
7.1 mmol/min per g protein
O=C(O)CCCCCC(=O)O [Pimelate]
48.4 mmol/min per g protein
O=C(O)/C=C/C(=O)O [Fumarate]
8.9 mmol/min per g protein
O=C(O)CC(=O)O [Malonate]
4.8 mmol/min per g protein
O=C(O)CCCCC(=O)O [Adipate]
65.0 mmol/min per g protein
O=C(O)CCCCC(=O)C(=O)O [2-Oxopimelate]
71.6 mmol/min per g protein
O=C(O)C[C@H](O)C(=O)O [L-malate]
56.4 mmol/min per g protein
O=C(O)C[C@@H](O)C(=O)O [D-malate]
52.1 mmol/min per g protein
O=C(O)CCCCCCC(=O)O [Suberate]
2.8 mmol/min per g protein
O=C(O)CCC(=O)O [Succinate]
19.1 mmol/min per g protein
O=C(O)CC(O)(CC(=O)O)C(=O)O [Citrate]
28.6 mmol/min per g protein
O=C(O)CCC(=O)C(=O)O [2-Oxoglutarate]
112.5 mmol/min per g protein
O=C(O)CCCC(=O)C(=O)O [2-Oxoadipate]
85.0 mmol/min per g protein

* * *

# system: Odc2p (Saccharomyces cerevisiae)
# Construct: made in house; host or cells: S. cerevisiae odc1Δodc2Δ (YPH499 background) carrying pYES2-based pODC2; purified from mitochondria on Ni-NTA agarose
# Sequence (Q99297 1-307): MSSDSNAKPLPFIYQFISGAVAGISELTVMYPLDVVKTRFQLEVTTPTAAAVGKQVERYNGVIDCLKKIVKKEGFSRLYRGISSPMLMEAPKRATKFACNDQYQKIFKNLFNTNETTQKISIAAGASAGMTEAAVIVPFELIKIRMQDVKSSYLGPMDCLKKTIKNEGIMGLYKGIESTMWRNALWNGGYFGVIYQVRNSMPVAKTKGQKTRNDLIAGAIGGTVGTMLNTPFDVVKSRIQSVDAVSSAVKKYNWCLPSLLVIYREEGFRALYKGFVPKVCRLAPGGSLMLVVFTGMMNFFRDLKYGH
# measurement-protocol: Dependence on internal substrate of [14C]oxoglutarate uptake into proteoliposomes reconstituted with recombinant Odc2p
# Assay type: biochemical
# condition-details: Odc2p; proteoliposomes preloaded with various substrates
readout-kind: [14C]oxoglutarate uptake with the internal substrate (in words)

CC(C)CC(=O)C(=O)O [2-oxoisocaproate]
no exchange
O=C(O)CCCC(=O)C(=O)O [2-Oxoadipate]
taken up efficiently
O=C(O)CCCCC(=O)C(=O)O [2-Oxopimelate]
taken up efficiently
Nc1ncnc2c1ncn2[C@@H]1O[C@H](COP(=O)(O)OP(=O)(O)O)[C@@H](O)[C@H]1O [ADP]
no exchange
O=C(O)CCCCC(=O)O [Adipate]
taken up efficiently

From: patent US20020155192A1
